# run_description: protein stability index of a GFP-peptide fusion (yeast GPS) (PSI 1-4); higher = more stable; sorted into four equal gates, so the index is relative within each strain
# conditions_used: san1∆
experimental_endpoint: protein stability index

In the examples that follow, each entry is paired with its recorded protein stability index.
# input sequence: TDAMTESQPKQTGTRRN [MCD1] ; wanted: its protein stability index
3.2

Name the recorded protein stability index for NATEVQKESDAKNETNS [ITC1] .
2.67

If you can, please state the reported protein stability index value of IMECCQKNDTAAFKDIA [RRP40] .
2.95

Quick check: protein stability index of TPGSVSLSAYNLTDEGY [PRP8] ?
2.3

What measured protein stability index goes with ISQKLTNVNVKIKDVQQ [SMC3] ?
2.27

Requested field: protein stability index. Item: NSGNSNSNSNQQSTDAD [RPT1]
2.48

Any idea what protein stability index was measured for RLFNVVVQDSQTATQLL [SMC2] ?
2.61

Please look up its protein stability index: MNIKPVQKQTRAGQRTR [RPS2]
1.92

// query protein stability index value for entry IEDLRADINSNRLSNPQ [YOR098C/NUP1]
2.72

Query: protein stability index; subject: NRSAKNSKNDSANVELF [YCS4]
2.94

Continuing:
What measured protein stability index goes with GSARTRWEMEAFGEFSL [FAS2] ?
2.93

Fill in: protein stability index of SELNEGNLSKREIQIDA [SRB8] is ___
2.98

Name the recorded protein stability index for YKLFIWLVVPTIYNLQH [YML031W/NDC1] .
1.36

Fill in: protein stability index of LVQMYIGEGAKLVRDAF [RPT5] is ___
2.51

Tell me the measured protein stability index of KGKTPKNAAESSYMGKH [PRP28] , please.
2.86

Entry VYLTAVLEYLAAEILEL [HTA1] has what protein stability index?
2.21

Query (sequence): NTTDPLGHTKAALGEVA [SIR2] ; field requested: protein stability index
2.67
